# method.notes: NCI Yeast Anticancer Drug Screen. Data for the rad14 strain (AID 159);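 also: 0% = growth of vehicle-treated control cultures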
# run.conditions: S. cerevisiae rad14 strain growth inhibition; at 3.7 µM; active compounds read high
The panel holds about 79,000 compounds, 15% with a hit somewhere; the sample as a whole holds those more often.
measured.endpoint: growth inhibition (%)
Numbers only here, please. The scale is %.

Q: Look up growth inhibition: `CCCCN(CCCC)CCSc1ccc(Cl)cc1`
Result: -5

Q: Now the same for `CCCc1cc(C(=O)OCC)cc(CCC)c1O`
Result: -2

Q: Now the same for `CCCCCCCCNC(=O)C1=C(C)NC(C)=C(C(=O)NCCCCCCCC)C1`
Result: 0

Q: Now the same for `Cc1ccc(S(=O)(=O)Oc2cc(Cl)c(Cl)cc2Cl)cc1`
Result: 4

Q: Now the same for `Nc1ccc2c(c1)C(=O)c1cccc(N)c1C2=O`
Result: 11

Q: Now the same for `Cc1ccc(-c2ccc(Nc3c4ccccc4nc4ccccc34)cc2)cn1`
Result: -19

Q: Now the same for CC1(Cl)CC(O)C2(CC1Br)C1(C)OC1C1OC1(Br)C2(C)C (configuration not stated)
Result: -14

Q: Now the same for CC1(C)C(=O)OC(n2cc(F)c(=O)[nH]c2=O)C1=O (configuration not stated)
Result: -37

Q: Now the same for `NC1=NS(=O)(=O)N=C(N)C1=Cc1ccc([N+](=O)[O-])o1`
Result: -8

Q: Now the same for Clc1ccccc1C1OC1c1ccccc1Cl (configuration not stated)
Result: -46

Q: Now the same for CC(/C=C/c1ccc2c(c1)OCO2)[N+](=O)[O-] (configuration not stated)
Result: 61

Q: Now the same for O=C(c1ccc(Cl)cc1)C1OC12C(=O)Nc1ccccc12 (configuration not stated)
Result: 99

====

For each record, write down the corresponding growth inhibition.
# method.notes: NCI Yeast Anticancer Drug Screen. Data for the sgs1 strain (AID 173);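 also: 0% = growth of vehicle-only control cultures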
# run.conditions: S. cerevisiae sgs1 mutant, at 3.7 µM, active compounds read high
This is part of a sample that, as a whole, favours compounds with a hit. Of some 79,000 tested, about 15% had one in any assay.
Numbers only here, please. The scale is %.

Q: Look up growth inhibition: `CN(C)CCOc1ccc2c(c1)C/C(=C/c1ncc([N+](=O)[O-])n1C)C2=O`
Result: 52

Q: Now the same for `N#CSc1ccc(S(N)(=O)=O)cc1`
Result: -67

Q: Now the same for `CN(Cc1cnc2nc(N)nc(N)c2n1)c1ccc(C(=O)N[C@@H](CCC(=O)O)C(=O)O)cc1`
Result: -3

Q: Now the same for `O=C(NCCCCCCCN1CCCCCCC1)C(C1CCCCC1)C1CCCCC1`
Result: 67

Q: Now the same for `COC(=O)c1ccc([N+](=O)[O-])c(O)c1`
Result: 32

Q: Now the same for `S=C(N/N=C(/c1ccccc1)c1ccccn1)N1CCCCCC1`
Result: 10

====

# method.notes: NCI Yeast Anticancer Drug Screen. Data for the rad14 strain (AID 159);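 also: 0% = growth of vehicle-treated control cultures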
# run.conditions: S. cerevisiae rad14 strain growth inhibition; at 33.0 µM
The panel holds about 79,000 compounds, 15% with a hit somewhere; the sample as a whole holds those more often. Calls of active or inactive are those of the source. Rule as the data show it: active = growth inhibition above about 70%; inactive = the rest.
Response enum: 1 for active, 0 for inactive

Q: // outcome(item) with item = `Nc1ccc2c(c1)C(=O)c1cccc(N)c1C2=O`
Result: 0

Q: Now the same for `COc1ccccc1/C=C1\Sc2scc(-c3cccc([N+](=O)[O-])c3)[n+]2C1=O`
Result: 1

Q: Now the same for `NC(=S)N/N=C\c1nccc2ccccc12`
Result: 1

Q: Now the same for `CCN(CC)C(=S)N/N=C(/C)c1cccc(/C(C)=N\NC(=S)N(CC)CC)n1`
Result: 0

====

# method.notes: NCI Yeast Anticancer Drug Screen. Data for the sgs1 mgt1 strain (AID 161);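 also: 0% = growth of cultures given vehicle only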
# run.conditions: S. cerevisiae sgs1 mgt1 strain, at 50.0 µM (retest, dose inferred, filed as 5.0), active compounds read high
The panel holds about 79,000 compounds, 15% with a hit somewhere; the sample as a whole holds those more often.
For each record, write down the corresponding growth inhibition.
Numbers only here, please. The scale is %.

Q: Look up growth inhibition: `CCC(=O)c1cccc2ccccc12`
Result: 52

Q: Now the same for `Cc1nc(-[n+]2nc(-c3ccncc3)nn2-c2ccccc2)sc1C`
Result: 76

Q: Now the same for `O=c1ssc2ncccc12`
Result: 96

Q: Now the same for `O=C1c2ccccc2C(=O)c2cc(CBr)ccc21`
Result: 89

Q: Now the same for CC(Br)C(=O)c1ccc2cc(Br)c3ccccc3c2c1 (configuration not stated)
Result: 76

Q: Now the same for COc1cc(C2SCC(=O)N2c2nnc(C(F)(F)F)s2)cc(OC)c1OC (configuration not stated)
Result: 2

Q: Now the same for `O=S(=O)(CCCl)c1ccccc1Cl`
Result: 87

====

# method.notes: NCI Yeast Anticancer Drug Screen. Data for the bub3 strain (AID 167)
# run.conditions: S. cerevisiae bub3 mutant strain, at 100.0 µM, active compounds read high
About 79,000 compounds went through this panel and 15% of them were active in at least one assay; those are over-represented in the sample as a whole. Activity calls are given as the source filed them. No stated cut-off is given here; in the data, active means growth inhibition above about 70%; inactive means the rest.
measured.endpoint: growth inhibition

Q: Look up growth inhibition: `N/C(=N\OC(=O)NC(Cl)=C(Cl)Cl)c1cc(C(F)(F)F)cc(C(F)(F)F)c1`
Result: 96% (active)

Q: Now the same for O=[N+]([O-])c1ccc2c(c1)C(N1CCN(CCO)CC1)Cc1ccc(F)cc1S2 (stereo unspecified)
Result: 24% (inactive)

Q: Now the same for `O=S(=O)(CCCl)c1ccccc1Cl`
Result: 98% (active)

Q: Now the same for `CN1Cc2ccccc2/C=C\c2ccccc21`
Result: 35% (inactive)

Q: Now the same for `c1ccc2c(c1)C(=NCCCN1CCCCCC1)c1cccn1-2`
Result: 97% (active)

Q: Now the same for `O=C1c2cc([N+](=O)[O-])ccc2-c2cccc(F)c21`
Result: 25% (inactive)

Q: Now the same for `O=C(NC(Nc1ccc(F)c(Cl)c1)(C(F)(F)F)C(F)(F)F)C(C(F)(F)F)C(F)(F)F`
Result: 97% (active)

Q: Now the same for `CN(C)C[C@H]1CC[C@@H](CN(C)C)C1=O`
Result: 63% (inactive)

Q: Now the same for `C[Si](C)(C)CNC(=O)OCc1ccccc1`
Result: 94% (active)

Q: Now the same for CCCCCCCC1(N=[N+]=[N-])C(=O)c2ccccc2N(C)C1=O (stereo unspecified)
Result: 69% (inactive)

Q: Now the same for `C/C(=N\NC(=S)SCc1ccccc1)c1ccccn1`
Result: 91% (active)

====

# method.notes: NCI Yeast Anticancer Drug Screen. Data for the CLN2oe strain (AID 163);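 also: 0% = growth of vehicle-only control cultures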
# run.conditions: S. cerevisiae CLN2oe strain, at 33.0 µM, active compounds read high
This is part of a sample that, as a whole, favours compounds with a hit. Of some 79,000 tested, about 15% had one in any assay.
For each record, write down the corresponding growth inhibition.
Numbers only here, please. The scale is %.

Q: Look up growth inhibition: COc1ccccc1C(=O)OCC1CCCN2CCCCC12 (centres undefined)
Result: 63

Q: Now the same for `Cc1nc(-[n+]2nc(-c3ccncc3)nn2-c2ccccc2)sc1C`
Result: 25

Q: Now the same for `CC1(C)[C@@H]2CC[C@]1(C)[C@H](OC(=O)CSC#N)C2`
Result: 47

Q: Now the same for `N#CN=Nc1cc(Cl)c(N=NC#N)cc1Cl`
Result: -8

Q: Now the same for `O=C(N=Nc1ccccc1Cl)NNc1ccccc1Cl`
Result: 22

Q: Now the same for `O=[N+]([O-])c1cccc2nccc(NCCCO)c12`
Result: 2

Q: Now the same for O=C(Nc1ccccc1)C(=O)C(C(=O)c1ccccc1)C(c1ccccc1)c1ccccc1 (centres undefined)
Result: 24

Q: Now the same for O=[N+]([O-])CC(SCc1ccccc1)c1ccc2c(c1)OCO2 (centres undefined)
Result: 97

Q: Now the same for `Fc1ccc(NC(=S)SCc2ccc(Cl)c(Cl)c2)cc1F`
Result: 80

Q: Now the same for c1ccc2c(c1)-c1nc3ccccc3cc1C2N1CCOCC1 (centres undefined)
Result: -8

Q: Now the same for `C[C@@H]1C[C@H]2[C@@H]3CCC4=CC(=O)C=C[C@]4(C)[C@@]3(Cl)[C@@H](Cl)C[C@]2(C)[C@@]1(O)C(=O)COP(=O)(O)O`
Result: -1

Q: Now the same for `COc1ccc2c(c1)C(=O)c1ccccc1C2`
Result: 9

Q: Now the same for `CCCCCCCCCCCC(=O)N(C)C`
Result: 0

Q: Now the same for `CC(=O)OCCOCNC(=S)N/N=C(\C)c1cnccn1`
Result: 21

====

# method.notes: NCI Yeast Anticancer Drug Screen. Data for the rad50 strain (AID 155);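 also: 0% = growth of vehicle-only cultures of the same strain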
# run.conditions: S. cerevisiae rad50 strain growth inhibition; at 1.2 µM; active compounds read high
# Description: Growth inhibition of yeast strains with defined genetic alterations is measured as a screen for potential anti-cancer activity. Selected strains with alterations in DNA damage repair or cell cycle control were exposed to compounds and growth inhibition was measured relative to vehicle treated controls. The strain used in this assay is rad50
This is part of a sample that, as a whole, favours compounds with a hit. Of some 79,000 tested, about 15% had one in any assay.
For each record, write down the corresponding growth inhibition.
Numbers only here, please. The scale is %.

Q: Look up growth inhibition: C[CH2][Sn]([CH2]C)([O]C(=O)C(OC(C)=O)c1ccccc1)[O]C(=O)C(OC(C)=O)c1ccccc1 (stereo not given)
Result: -4

Q: Now the same for `BrCc1cccc2ccc3cccc(CBr)c3c12`
Result: -3

Q: Now the same for CCCCCCCCC/C=C/C=C/C(=O)NCC(=O)NC1C(O)C(O)C(Nc2ncnc3nc[nH]c23)OC1C(O)CO (stereo not given)
Result: -53

Q: Now the same for CCCCN1C(=O)N(c2ccc(OCC)cc2)C2N(CCCC)C1C(C)(C)C2(C)C (stereo not given)
Result: -17

Q: Now the same for `CC(C)/C(Cl)=N\OC(=O)Nc1cccc(Cl)c1`
Result: -2
